Where these numbers come from: ChEMBL document CHEMBL5442219

target: Muscarinic acetylcholine receptor M2 (Homo sapiens) (UniProt P08172); conditions: Compound concentration 10 µM
Sequence (P08172 whole entry): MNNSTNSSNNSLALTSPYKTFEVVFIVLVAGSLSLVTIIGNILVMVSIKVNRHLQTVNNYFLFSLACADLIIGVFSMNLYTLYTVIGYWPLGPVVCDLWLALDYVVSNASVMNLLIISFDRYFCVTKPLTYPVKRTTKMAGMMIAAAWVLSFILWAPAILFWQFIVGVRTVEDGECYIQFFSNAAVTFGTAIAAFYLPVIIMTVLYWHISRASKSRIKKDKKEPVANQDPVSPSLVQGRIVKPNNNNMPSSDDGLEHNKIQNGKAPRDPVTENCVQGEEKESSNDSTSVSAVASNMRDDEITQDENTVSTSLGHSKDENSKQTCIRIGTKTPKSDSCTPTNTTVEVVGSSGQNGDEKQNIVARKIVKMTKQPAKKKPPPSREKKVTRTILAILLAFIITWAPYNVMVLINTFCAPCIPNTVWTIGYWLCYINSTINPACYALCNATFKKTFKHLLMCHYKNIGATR
Description: PDSP Primary Binding target: CHRM2 - Compounds are tested at 10 uM concentration, plate are incubated at room temperature in the dark for 90 minutes. Reaction are stopped by vacuum filtration onto 0.3% polyethyleneimine soaked filter mats using Filtermate harvester. Scintilation cocktail is then melted onto microwave-dried filters on a hot plate and the radio activity is counted in Microbia counter.
We use 10% as the dividing line for inhibition: on or above the line is Y, below is N.

Record excerpt, results attached:
Cc1c(P(=S)(c2ccccc2)c2ccccc2)n2ccccc2[n+]1C/C=C/c1ccccc1    Y
NC[C@H](O)c1ccc(O)c(O)c1    N
COc1cccc([C@@H](C)NCCCc2ccccc2Cl)c1    N
CO[C@@H]1COCC[C@@H]1N[C@@H]1CC[C@@](C(=O)N2CCc3ncc(C(F)(F)F)cc3C2)(C(C)C)C1    N
COc1cc(-n2cnc3cc(-c4ccc(Cl)cc4)sc3c2=O)ccc1OCCN1CCCC1    Y

Request: Does the compound CC[C@@H]1CN2C(=O)N(C)c3nc(-c4ccccc4)[nH]c3C2=N1 have recorded inhibition that is 10% or more?
Result: N

Request: Same lookup for O=C(Cc1ccc(Cl)c(Cl)c1)N1CCCC[C@H]1CN1CCCC1 , please.
Result: Y

Request: Same lookup for CC(C)NC(=O)c1ccc(C#Cc2ccncc2)cn1 , please.
Result: Y

Request: Same lookup for Cc1cc([C@@H](C)Nc2cccc(-c3cc(C)c(C(=O)N[C@@H](C)C(=O)O)c(C)c3)c2)ccc1Cl , please.
Result: N

Request: Same lookup for CN[C@@H]1CCc2[nH]c3ccc(C(N)=O)cc3c2C1 , please.
Result: Y

Request: Same lookup for CCCSc1nc(N[C@@H]2C[C@H]2c2ccc(F)c(F)c2)c2nnn([C@@H]3C[C@H](OCCO)[C@@H](O)[C@H]3O)c2n1 , please.
Result: N

Request: Same lookup for Cc1csc(NC(=O)c2cc(F)cc(Oc3cncnc3)c2)n1 , please.
Result: N

Request: Same lookup for CCc1ccc(OCc2ccccc2C(=O)Nc2ccc3nc(C)cc(N)c3c2)cc1 , please.
Result: Y

Request: Same lookup for O=C(O)Cn1c(C(=O)Nc2nc(-c3ccccc3Cl)cs2)cc2ccccc21 , please.
Result: N

Request: Same lookup for CCCCCNC(=N)N/N=C/c1c[nH]c2ccc(OC)cc12 , please.
Result: Y

Request: Same lookup for CCCNS(=O)(=O)Nc1ncnc(OCCOc2ncc(Br)cn2)c1-c1ccc(Br)cc1 , please.
Result: N

Request: Same lookup for CCCCCCCCCCCCCCCCOC[C@H](COP(=O)([O-])OCC[N+](C)(C)C)OC(C)=O , please.
Result: N

Request: Same lookup for COc1cccc([C@H](O)C2CCN(CCc3ccc(F)cc3)CC2)c1OC , please.
Result: N

Request: Same lookup for CCCCN1CCC(COC(=O)c2cc(Cl)c(N)c3c2OCCO3)CC1 , please.
Result: N

Request: Same lookup for Cc1csc2c(N[C@@H](C)CN3CCN(S(=O)(=O)c4ccc(Cl)c(Cl)c4)CC3)ncnc12 , please.
Result: N

Request: Same lookup for c1cc(CN2CCCNCCNCCCNCC2)ccc1CN1CCCNCCNCCCNCC1 , please.
Result: Y
